- TEST SYSTEM: CFTR ΔF508 mutant (Homo sapiens, UniProt P13569, DEL508-508)
- Construct: expressed in transfected cells; host or cells: CFBE41o- cells, adenoviral transduction
- Sequence (P13569 with tags, fused parts or gaps DEL508-508): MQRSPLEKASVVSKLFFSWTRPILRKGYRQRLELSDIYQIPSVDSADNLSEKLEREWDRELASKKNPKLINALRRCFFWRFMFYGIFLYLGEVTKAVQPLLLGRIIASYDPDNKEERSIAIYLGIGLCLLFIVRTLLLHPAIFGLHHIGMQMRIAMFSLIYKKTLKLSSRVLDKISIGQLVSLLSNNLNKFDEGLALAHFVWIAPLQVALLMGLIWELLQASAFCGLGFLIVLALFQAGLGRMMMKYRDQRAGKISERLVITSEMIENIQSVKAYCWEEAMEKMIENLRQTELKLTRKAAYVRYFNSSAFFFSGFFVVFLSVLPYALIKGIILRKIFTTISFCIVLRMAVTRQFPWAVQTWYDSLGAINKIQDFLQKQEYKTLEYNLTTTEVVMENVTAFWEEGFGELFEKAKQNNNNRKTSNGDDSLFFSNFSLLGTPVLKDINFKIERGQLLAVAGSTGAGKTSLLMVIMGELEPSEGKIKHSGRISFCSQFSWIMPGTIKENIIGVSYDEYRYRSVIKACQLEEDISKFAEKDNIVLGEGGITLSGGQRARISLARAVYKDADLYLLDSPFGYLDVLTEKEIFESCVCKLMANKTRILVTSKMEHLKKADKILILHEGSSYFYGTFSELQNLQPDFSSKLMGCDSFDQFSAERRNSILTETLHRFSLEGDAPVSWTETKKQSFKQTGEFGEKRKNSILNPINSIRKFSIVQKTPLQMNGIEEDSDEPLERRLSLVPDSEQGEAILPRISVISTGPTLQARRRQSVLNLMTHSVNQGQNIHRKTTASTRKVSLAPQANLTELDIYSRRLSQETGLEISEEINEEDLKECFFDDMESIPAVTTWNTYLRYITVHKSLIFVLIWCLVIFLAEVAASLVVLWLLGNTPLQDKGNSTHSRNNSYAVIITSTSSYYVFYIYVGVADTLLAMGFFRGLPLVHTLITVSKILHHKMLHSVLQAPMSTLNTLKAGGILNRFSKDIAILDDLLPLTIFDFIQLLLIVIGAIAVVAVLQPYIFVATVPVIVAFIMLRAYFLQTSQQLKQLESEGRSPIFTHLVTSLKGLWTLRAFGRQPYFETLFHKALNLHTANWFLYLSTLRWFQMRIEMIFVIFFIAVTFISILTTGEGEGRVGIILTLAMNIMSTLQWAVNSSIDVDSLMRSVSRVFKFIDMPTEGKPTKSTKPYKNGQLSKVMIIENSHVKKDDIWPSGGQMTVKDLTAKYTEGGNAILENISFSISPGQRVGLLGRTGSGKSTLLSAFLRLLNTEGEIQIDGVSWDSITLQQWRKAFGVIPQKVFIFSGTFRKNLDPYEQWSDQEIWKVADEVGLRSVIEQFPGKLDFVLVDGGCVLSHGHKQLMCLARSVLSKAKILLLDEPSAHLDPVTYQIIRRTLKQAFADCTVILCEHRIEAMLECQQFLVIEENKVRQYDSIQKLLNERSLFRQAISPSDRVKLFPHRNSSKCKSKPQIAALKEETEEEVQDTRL
- PROCEDURE SUMMARY: YFP-halide influx assay for the CFTR-ΔF508 mutation (CFBE41o- cells)
- Format: cell-based
- REPORTED CONDITIONS: forskolin 10.67 μM
ASSAY READOUT: % Activation (%)

1) Nc1cc(S(=O)(=O)c2ccccc2OC(F)(F)F)cnc1C(=O)N1CC(O)(C(F)(F)F)C1	110.5
2) Nc1cc(S(=O)(=O)c2ccc(OC(F)(F)F)cc2)cnc1C(=O)N1CC(F)(F)C1	105.5
3) Nc1cc(S(=O)(=O)c2ccc(OC(F)(F)F)cc2)cnc1C(=O)N1CC(N2CCOCC2)C1	105.0
4) Nc1cc(S(=O)(=O)c2ccc(C(F)(F)F)cc2)cnc1C(=O)NCC(F)(F)F	93.8
5) Nc1cc(S(=O)(=O)c2ccccc2)cnc1C(=O)NC[C@@H](O)C(F)(F)F	102.6
6) C[C@H](O)CNC(=O)c1ncc(S(=O)(=O)c2ccc(OC(F)(F)F)cc2)cc1N	109.0
7) COCCCNC(=O)c1ncc(S(=O)(=O)c2ccc(C(F)(F)F)cc2)cc1N	108.7
8) CC(C)NC(=O)CNC(=O)c1ncc(S(=O)(=O)N2CCC[C@@H]2C)cc1N	100.0
9) COC[C@H](O)CNC(=O)c1ncc(S(=O)(=O)c2ccc(C(F)(F)F)cc2)cc1N	111.6
10) Nc1cc(S(=O)(=O)c2ccc(OC(F)(F)F)cc2)cnc1C(=O)NCCc1ccco1	100.6
11) Nc1cc(S(=O)(=O)c2ccc(OC(F)(F)F)cc2)cnc1C(=O)NCCC1CC1	93.3
12) C[C@H]1CCCN1S(=O)(=O)c1cnc(C(=O)N2CC(O)C2)c(N)c1	82.0
13) CC1(C)CN(C(=O)c2ncc(S(=O)(=O)c3ccc(OC(F)(F)F)cc3F)cc2N)C1	101.6
14) Nc1cc(S(=O)(=O)c2ccccc2)cnc1C(=O)NCC(O)C(F)(F)F (stereo not shown)	102.5
15) Nc1cc(S(=O)(=O)c2ccc(OC(F)(F)F)cc2)cnc1C(=O)NCC1(O)CCOC1 (stereo not shown)	97.2
16) Nc1cc(S(=O)(=O)c2ccc(OC(F)(F)F)cc2)cnc1C(=O)NCC1(O)CCOCC1	94.1

====

- TEST SYSTEM: CFTR G551D mutant (Homo sapiens, UniProt P13569, G551D)
- Construct: expressed in transfected cells; host or cells: HEK293 cells, reverse transfection with plasmids
- Sequence (P13569 whole entry G551D): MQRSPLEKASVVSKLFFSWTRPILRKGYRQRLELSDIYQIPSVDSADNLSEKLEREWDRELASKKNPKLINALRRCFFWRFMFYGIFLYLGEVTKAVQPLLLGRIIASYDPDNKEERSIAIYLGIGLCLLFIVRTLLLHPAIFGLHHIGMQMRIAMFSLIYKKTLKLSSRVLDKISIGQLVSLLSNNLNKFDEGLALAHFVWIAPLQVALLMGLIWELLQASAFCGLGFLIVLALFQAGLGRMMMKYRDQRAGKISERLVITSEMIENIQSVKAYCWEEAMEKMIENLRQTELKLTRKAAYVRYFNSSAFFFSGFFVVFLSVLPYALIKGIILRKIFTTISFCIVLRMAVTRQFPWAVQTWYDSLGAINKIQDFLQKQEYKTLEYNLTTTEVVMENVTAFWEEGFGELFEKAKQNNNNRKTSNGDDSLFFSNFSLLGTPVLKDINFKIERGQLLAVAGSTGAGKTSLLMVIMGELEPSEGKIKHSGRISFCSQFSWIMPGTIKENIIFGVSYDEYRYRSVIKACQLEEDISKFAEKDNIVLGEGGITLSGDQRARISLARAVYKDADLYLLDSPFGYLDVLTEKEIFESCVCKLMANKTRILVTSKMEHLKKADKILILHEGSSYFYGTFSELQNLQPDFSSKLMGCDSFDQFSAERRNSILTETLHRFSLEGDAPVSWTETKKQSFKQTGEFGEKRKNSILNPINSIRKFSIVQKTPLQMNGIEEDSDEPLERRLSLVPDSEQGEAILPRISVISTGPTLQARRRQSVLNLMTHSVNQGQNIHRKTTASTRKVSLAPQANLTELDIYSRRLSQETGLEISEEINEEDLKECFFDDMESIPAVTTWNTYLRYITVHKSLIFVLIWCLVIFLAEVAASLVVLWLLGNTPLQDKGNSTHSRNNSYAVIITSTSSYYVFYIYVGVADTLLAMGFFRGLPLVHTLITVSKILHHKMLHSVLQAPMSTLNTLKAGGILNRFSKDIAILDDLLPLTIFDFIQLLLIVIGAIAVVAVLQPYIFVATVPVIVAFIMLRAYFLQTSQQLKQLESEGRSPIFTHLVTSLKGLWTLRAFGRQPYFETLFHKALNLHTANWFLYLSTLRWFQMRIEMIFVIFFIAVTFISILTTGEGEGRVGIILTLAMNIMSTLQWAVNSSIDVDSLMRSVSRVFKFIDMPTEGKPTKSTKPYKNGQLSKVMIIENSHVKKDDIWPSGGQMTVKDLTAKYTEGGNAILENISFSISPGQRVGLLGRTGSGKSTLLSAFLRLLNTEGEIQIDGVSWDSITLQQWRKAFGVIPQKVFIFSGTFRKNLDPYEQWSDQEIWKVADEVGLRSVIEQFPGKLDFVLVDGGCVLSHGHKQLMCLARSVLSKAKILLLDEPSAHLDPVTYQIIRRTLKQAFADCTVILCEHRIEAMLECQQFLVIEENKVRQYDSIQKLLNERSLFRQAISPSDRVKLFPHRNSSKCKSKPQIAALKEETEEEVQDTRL
- PROCEDURE SUMMARY: YFP-halide influx assay for the CFTR-G551D mutation (HEK293 cells)
- Assay type: cell-based
- REPORTED CONDITIONS: forskolin 10.67 μM
ASSAY READOUT: % Activation (%)

1. CC(C)(C)C(O)CNC(=O)c1ncc(S(=O)(=O)c2ccc(OC(F)(F)F)cc2)cc1N (centres unmarked)	96.2

A. Nc1cc(S(=O)(=O)c2ccc(F)cc2)cnc1C(=O)NC[C@@H](O)C(F)(F)F
B. Nc1cc(S(=O)(=O)N2CC[C@H](F)C2)cnc1C(=O)NCC(O)C(F)(F)F (some centres unmarked)
C. CC(C)S(=O)(=O)c1cc(N)c(C(=O)NC[C@H](C)O)nc1-c1ccc(F)cc1
Query string: List items by % Activation in falling order. // rank by listing labels in the order requested
Result string: A, B, C

P. Nc1cc(S(=O)(=O)N2CCC(C(F)(F)F)CC2)cnc1C(=O)NCC(O)C(F)(F)F (centres unmarked)
Q. Nc1cc(S(=O)(=O)c2ccc(F)cc2)c(Br)nc1C(=O)NC[C@@H](O)C(F)(F)F
Query string: Please indicate which entry, P or Q , has the lower recorded % Activation value. Output the label that corresponds to your choice.
Result string: P
(P: 54.2%, Q: 90.4%)

====

- TEST SYSTEM: CFTR ΔF508 mutant (Homo sapiens, UniProt P13569, DEL508-508)
- PROCEDURE SUMMARY: YFP-halide influx assay for the CFTR-ΔF508 mutation (CFBE41o- cells)
- REPORTED CONDITIONS: forskolin 10.67 μM, from (1−F/F0) vs concentration plot
pEC50: −log10 of the molar value.
ASSAY READOUT: pEC50

1) CC(C)[C@H](NC(=O)c1ncc(S(=O)(=O)c2ccc(OC(F)(F)F)cc2)cc1N)C(N)=O [Compound 49]	6.90
2) Nc1cc(S(=O)(=O)c2ccc(OC(F)(F)F)cc2)cnc1C(=O)N[C@@H]1COCC[C@@H]1O (racemic) [Compound 33]	7.37
3) COc1ccnc(CNC(=O)c2ncc(S(=O)(=O)N3CCC[C@@H]3C)cc2N)n1 [Compound 281]	6.78

I. Nc1cc(S(=O)(=O)c2ccc(OC(F)(F)F)cc2)cnc1C(=O)N1CC(O)(C(F)(F)F)C1 [Compound 79]
II. Nc1cc(S(=O)(=O)c2ccc(F)cc2)cnc1C(=O)N1CC(O)(C(F)(F)F)C1 [Compound 176]
Query string: # returns the entry with the larger pEC50; inputs I and II Kindly state the label of the option you pick.
Result string: II

A. C[C@H](O)CNC(=O)c1ncc(S(=O)(=O)c2ccc(C(F)(F)F)cc2F)cc1N [Compound 98]
B. Nc1cc(S(=O)(=O)c2ccc(C(F)(F)F)cc2)cnc1C(=O)NC[C@H](O)C(F)(F)F [Compound 64]
Query string: I would appreciate it if you could say which entry, A or B , has the lower pEC50 value. Answer by stating the label of the chosen item.
Result string: A
(A: 8.13, B: 8.89)

====

- TEST SYSTEM: CFTR ΔF508 mutant (Homo sapiens, UniProt P13569, DEL508-508)
- Construct: expressed in transfected cells; host or cells: CFBE41o- cells, adenoviral transduction
- PROCEDURE SUMMARY: YFP-halide influx assay for the CFTR-ΔF508 mutation (CFBE41o- cells)
- Type: cell-based
- REPORTED CONDITIONS: forskolin 10.67 μM
- Description: The YFP halide influx assay measured the functionality of the cystic fibrosis Transmembrane Conductance regulator (CFTR) channels in the cystic fibrosis bronchial epithelium cell line CFBE41o-. The assay was used to evaluate the capacity of compounds to increase the open probability of existing CFTR channels in the membrane. […] The I-induced quenching of fluorescence was recorded on an immediately after injection of iodide for 2 minutes on an FDSS/μCell (Hamamatsu). […]
ASSAY READOUT: % Activation (%)

A selection of reference data follows.
1) CC1CC(C)CN(S(=O)(=O)c2cnc(C(=O)NCC(O)C(F)(F)F)c(N)c2)C1 (stereo not shown) [Compound 185]	111.3
2) CC(C)(C)C1CCN(S(=O)(=O)c2cnc(C(=O)NCC(O)C(F)(F)F)c(N)c2)CC1 (stereo not shown) [Compound 197]	106.7
3) CN1CC[C@@H](NC(=O)c2ncc(S(=O)(=O)c3ccc(OC(F)(F)F)cc3)cc2N)C1 [Compound 208]	70.5
4) Nc1cc(S(=O)(=O)c2ccc(OC(F)(F)F)cc2)cnc1C(=O)NC1(C(F)(F)F)CCOCC1 [Compound 193]	26.7
5) C[C@H](O)CNC(=O)c1ncc(S(=O)(=O)c2ccccc2OC(F)(F)F)cc1N [Compound 82]	106.0

I. Nc1cc(S(=O)(=O)c2cccc(OC(F)(F)F)c2)cnc1C(=O)NCC(O)C(F)(F)F (stereo not shown) [Compound 236]
II. C[C@H]1CCCN1S(=O)(=O)c1cnc(C(=O)N2CC(C(N)=O)C2)c(N)c1 [Compound 271]
Query string: Select one. Lower % Activation: I or II Select an item and report its label.
Result string: II
(II: 20.4%, I: 115.5%)

====

- TEST SYSTEM: CFTR ΔF508 mutant (Homo sapiens, UniProt P13569, DEL508-508)
- PROCEDURE SUMMARY: YFP-halide influx assay for the CFTR-ΔF508 mutation (CFBE41o- cells)
- REPORTED CONDITIONS: forskolin 10.67 μM, from (1−F/F0) vs concentration plot
pEC50: −log10 of the molar value.
ASSAY READOUT: pEC50

Answered examples (2):
1) Nc1cc(S(=O)(=O)c2ccc(OC(F)(F)F)cc2)cnc1C(=O)NC1CC(F)(F)C1	7.45
2) CN(Cc1ccc(F)cc1F)S(=O)(=O)c1cnc(C(=O)NCC(O)C(F)(F)F)c(N)c1 (centres unmarked)	8.43

I. Nc1cc(S(=O)(=O)c2ccc(C(F)(F)F)cc2)cnc1C(=O)N1CC(F)(F)C1
II. CCC1(F)CN(C(=O)c2ncc(S(=O)(=O)c3ccc(OC(F)(F)F)cc3)cc2N)C1
Query string: # min-compare on pEC50 between I and II Respond with the label that goes with your answer.
Result string: II
(II: 6.99, I: 7.58)

1. Nc1cc(S(=O)(=O)NC[C@H]2CCOC2)cnc1C(=O)NCC(O)C(F)(F)F (some centres unmarked)
2. Nc1cc(S(=O)(=O)c2ccc(C(F)(F)F)cc2)cnc1C(=O)NCCOCC1CCCO1 (centres unmarked)
Query string: Compare pEC50: is it lower for 1 or for 2 ? Please indicate the selected item by its label.
Result string: 2
(2: 6.87, 1: 7.37)

1. Nc1cc(S(=O)(=O)N2CCOCC2)cnc1C(=O)NCC(O)C(F)(F)F (centres unmarked)
2. COCCS(=O)(=O)c1cc(N)c(C(=O)NC[C@H](C)O)nc1-c1ccc(F)cc1
Query string: Quick one: lower pEC50, 1 or 2 ? Please reply using the label of the selected record.
Result string: 2
(2: 6.85, 1: 7.21)
